Tested on: THRa:RXRa (NR concentration 90 nM, RXRa partner concentration 90 nM)
Experiment: PBM binding z-score (relative to random genomic background probes); higher = stronger binding; sequences stand for … in GC…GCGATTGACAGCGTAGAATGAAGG
attribute.measured: PBM binding z-score
Would you mind answering with just the numeric figure?

A selection of reference data follows.
Problem: Given the entry "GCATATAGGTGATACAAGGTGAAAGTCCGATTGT" , report its measured PBM binding z-score.
Result: 4.24

Problem: Given the entry "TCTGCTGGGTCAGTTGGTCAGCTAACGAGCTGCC" , report its measured PBM binding z-score.
Result: 0.669

Problem: Given the entry "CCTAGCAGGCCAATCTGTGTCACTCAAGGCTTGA" , report its measured PBM binding z-score.
Result: 0.791

Problem: Given the entry "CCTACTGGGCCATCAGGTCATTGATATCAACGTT" , report its measured PBM binding z-score.
Result: 3.14

New cases:
Problem: Given the entry "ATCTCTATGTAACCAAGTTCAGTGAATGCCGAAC" , report its measured PBM binding z-score.
Result: 0.659

Problem: Given the entry "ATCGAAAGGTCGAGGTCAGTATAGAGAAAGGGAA" , report its measured PBM binding z-score.
Result: 3.84

Problem: Given the entry "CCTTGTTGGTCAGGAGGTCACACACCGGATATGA" , report its measured PBM binding z-score.
Result: 3.33

###

Tested on: PPARg:RXRa (NR concentration 180 nM, RXRa partner concentration 90 nM)
Experiment: PBM binding z-score (relative to random genomic background probes); higher = stronger binding; sequences stand for … in GC…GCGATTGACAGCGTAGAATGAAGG
Here the recorded PBM binding z-score is given for each entry.
Would you mind answering with just the numeric figure?

A selection of reference data follows.
Problem: Given the entry "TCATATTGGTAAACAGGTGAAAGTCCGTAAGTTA" , report its measured PBM binding z-score.
Result: 0.821

Problem: Given the entry "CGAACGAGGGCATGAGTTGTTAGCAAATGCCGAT" , report its measured PBM binding z-score.
Result: 1.08

Problem: Given the entry "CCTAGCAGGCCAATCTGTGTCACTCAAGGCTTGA" , report its measured PBM binding z-score.
Result: -0.0496

Problem: Given the entry "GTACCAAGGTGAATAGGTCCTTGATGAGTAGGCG" , report its measured PBM binding z-score.
Result: 0.918

// moving on: another record for PBM binding z-score
Problem: Given the entry "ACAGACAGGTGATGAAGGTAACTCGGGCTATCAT" , report its measured PBM binding z-score.
Result: 0.471

###

Tested on: FXR:RXRa (NR concentration 270 nM, RXRa partner concentration 90 nM)
Test: PBM binding z-score (relative to random genomic background probes); higher = stronger binding; sequences stand for … in GC…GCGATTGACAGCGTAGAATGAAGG
Here the recorded PBM binding z-score is given for each entry.
Would you mind answering with just the numeric figure?

A selection of reference data follows.
Problem: Given the entry "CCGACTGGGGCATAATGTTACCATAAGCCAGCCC" , report its measured PBM binding z-score.
Result: -0.414

Problem: Given the entry "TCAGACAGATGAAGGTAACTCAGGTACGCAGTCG" , report its measured PBM binding z-score.
Result: 0.719

New cases:
Problem: Given the entry "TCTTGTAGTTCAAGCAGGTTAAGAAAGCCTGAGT" , report its measured PBM binding z-score.
Result: 1.59

Problem: Given the entry "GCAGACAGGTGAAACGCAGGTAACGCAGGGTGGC" , report its measured PBM binding z-score.
Result: -0.151

Problem: Given the entry "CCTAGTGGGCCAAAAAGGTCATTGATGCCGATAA" , report its measured PBM binding z-score.
Result: 3.3

Problem: Given the entry "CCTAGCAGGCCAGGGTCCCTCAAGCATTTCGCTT" , report its measured PBM binding z-score.
Result: -0.373

Problem: Given the entry "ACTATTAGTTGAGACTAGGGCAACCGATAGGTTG" , report its measured PBM binding z-score.
Result: -0.2

Problem: Given the entry "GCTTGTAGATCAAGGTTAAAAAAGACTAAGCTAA" , report its measured PBM binding z-score.
Result: 0.221

Problem: Given the entry "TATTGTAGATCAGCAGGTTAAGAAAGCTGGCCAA" , report its measured PBM binding z-score.
Result: -0.221

Problem: Given the entry "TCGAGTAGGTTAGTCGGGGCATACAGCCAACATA" , report its measured PBM binding z-score.
Result: 0.288
